Taken from patent US20180148504A1.

- tested on: T1, recombinant purified FRα (ECL assay calibrator) (human, UniProt P15328 25-234)
- T1 construct: Calibrator of the ECL sandwich assays; also called FRα calibrator; FRα standard
- T1 sequence (P15328 25-234 limits assumed): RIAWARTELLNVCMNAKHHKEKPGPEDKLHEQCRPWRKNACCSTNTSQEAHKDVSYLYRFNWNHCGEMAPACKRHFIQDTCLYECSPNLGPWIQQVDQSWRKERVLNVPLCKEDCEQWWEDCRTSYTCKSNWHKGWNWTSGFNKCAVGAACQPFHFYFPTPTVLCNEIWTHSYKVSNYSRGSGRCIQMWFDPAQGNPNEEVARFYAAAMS
- test details: ECL sandwich, FRα calibrator; capture 24H8.F3; binder = detection Ab
In this section, each of the binders is paired with its reported Specific signal at 500 pg/mL.

[[record]]
binder = "Monoclonal antibody 24H8.D3 (antibody, mouse IgG1, V domains shown, Biotin-conjugated when used as capture antibody in the ECL assay; also called ATCC PTA-123090) VH: QVQLKESGPGLVAPSQSLSITCTVSGFSLTSYGVSWVRQPPGKGLEWLGVIWGDGSTNYHSTLISRLSISKDNSKSQVFLKLNSLQTDDTATYYCAKPHPAATGAMDYWGQGTSVTVSS VL: DIQMTQTTSSLSASLGDRVTISCRASQDISNHLNWYQQKPDGTIKLLIYYTSKLHSGVPSRFSGSGSGTDYSLTISNLEQEDIATYFCQQGNTLWTFGGGTKLEIK"
data_value = 88

[[record]]
binder = "Monoclonal antibody 26A9.C4 (antibody, mouse IgG1, V domains shown, Murine IgG1 kappa from hybridoma; also called ATCC PTA-123092) VH: SGARELVKPGASVKLSCKTSGFTFSSSFISWLKQKPGQSLEWIAWIYGGNGGTSYNQNFTGKAQLTVDTSSSTAYMQFSSLTTEDSAVYYCASETYGNYWYFDVWGAGTTVTVSS VL: QSPASLSASVGDTVTITCRASGNIHNYLAWYQQKQGKSPQLLVYNAKTLADGVPSRFSGSGSGTQYSLKINSLQPEDFGNYYCQHFWSTPYTFGGGTKLEIK"
data_value = 56


Query :: Query (binder): Monoclonal antibody 24H8.F3 (antibody, mouse IgG1, V domains shown, Murine IgG1 kappa from hybridoma; also called ATCC PTA-123097) VH: GPGLVAPSQSLSITCTVSGFSLTSYGVSWVRQPPGKGLEWLGVIWGDGSTNYHSTLISRLSISKDNSKSQVFLKLNSLQTDDTATYYCAKPHPAATGAMDYWGQGTSVTVSS VL: TTSSLSASLGDRVTISCRASQDISNHLNWYQQKPDGTIKLLIYYTSKLHSGVPSRFSGSGSGTDYSLTISNLEQEDIATYFCQQGNTLWTFGGGTKLEIK ; field requested: Specific signal at 500 pg/mL
Result :: 104
